tested on: HL-60(TB) leukemia; assay: NCI tumour cell line growth inhibition, 48 h
In this section we review reported TGI values for a set of molecules.
endpoint: TGI (µM)

| molecule | measure_unit | relation_symbol | result |
| --- | --- | --- | --- |
| COC(=O)c1cc(NC(=O)c2cc(NC(=O)Cc3c[nH]c4ccccc34)cn2C)cn1C | µM | = | 95.4 |
| Cc1ccc2nc(-c3ccc(NC(=O)c4ccc(N)cc4)c(S(=O)(=O)O)c3)sc2c1 | µM | > | 100 |
| CC1(C)S[C@H](CN)N[C@H]1C(=O)OC(c1ccccc1)c1ccccc1 | µM | = | 35.7 |
| C/C(=N\NC(=S)NC(CCC(=O)O)C(=O)O)c1cnccn1 (stereo not drawn) | µM | > | 100 |
| CC(C)CCC[C@@H](C)C1CCC2[C@@H]3CCC4C[C@@H](NS(C)(=O)=O)CC[C@]4(C)C3CC[C@@]21C (stereo partly drawn) | µM | > | 100 |
| CCN(CC)CCC(CNc1ccnc2cc(Cl)ccc12)c1ccccc1 (stereo not drawn) | µM | = | 29.2 |
| CCCCCCCCCCCCCCCCCCOc1ccccc1CC(=O)OCC[N+](CC)(CC)CC | µM | = | 2.78 |
| O=[N+]([O-])c1ccc(C2=NOC(c3ccc(Cl)cc3)N2C23CC4CC(CC(C4)C2)C3)cc1 (stereo not drawn) | µM | > | 100 |
| C=C1C(=O)O[C@H]2[C@H]1CC/C(Cn1cc(-c3cccc(Cl)c3)nn1)=C\CC[C@@]1(C)O[C@@H]21 | µM | = | 1.31 |
| CC(=O)Oc1c(OC(C)C)c(C)c(O[Si](C(C)C)(C(C)C)C(C)C)c2[nH]c3ccccc3c12 | µM | = | 8.43 |
| CCN(CC)C(=S)SC1C(=O)NC(=O)NC1=O | µM | > | 100 |
| COc1ccc(-c2nn(-c3ccc(NC(=O)c4cc(Cl)cc(Cl)c4)cc3)cc2-c2ccncc2)cc1Cl | µM | > | 100 |
| CCCC(C)NC(=O)c1ccc(N(C)Cc2cnc3nc(N)nc(N)c3n2)cc1 (stereo not drawn) | µM | > | 100 |
| CC(C)(C)NC(=O)[C@H]1CC[C@H]2[C@@H]3CC[C@H]4NC(=O)C=C[C@]4(C)[C@H]3CC[C@]12C | µM | > | 100 |
| N#Cc1ccccc1C#C/C=C\C#CC#C/C=C\C#Cc1ccccc1C#N | µM | = | 22.5 |
| Cc1ccc(Cl)cc1NC(=O)c1cc2ccccc2cc1O | µM | = | 0.768 |
| COc1ccc(-n2c3c(c4cc(O)ccc42)Cc2ccccc2C3=O)cc1 | µM | > | 100 |
| CCc1[nH]c(=O)c2oc3cc4ccccc4cc3c2c1C(=O)O | µM | > | 10 |

---

In this section we review reported TGI values for a set of compounds.
system: DMS 273 small cell lung; assay: NCI tumour cell line growth inhibition, 48 h

| compound | TGI |
| --- | --- |
| CCOc1ccc(OCC)c([P+](c2ccccc2)(c2ccccc2)c2ccccc2)c1 | 1.21 µM |
| COc1ccc(S(=O)(=O)N[C@H](C(=O)O)c2ccccc2)cc1 | > 100 µM |
| CCOC(=O)CCC(NC(=O)c1ccc(N=Cc2nc3ccccc3nc2-c2ccccc2)cc1)C(=O)OCC (stereo not drawn) | > 100 µM |
| CC1CCC(=O)C(C(O)CC2CC(=O)N(c3ccccc3)C(=O)C2)C1 (stereo not drawn) | > 100 µM |
| COC1OC(CBr)C(OC(=O)c2ccccc2)C(OS(=O)(=O)c2ccc(C)cc2)C1Br (stereo not drawn) | > 100 µM |
| COc1ccc(-c2ccccc2)c2[nH]c3c(c12)CCNC3=O | > 100 µM |
| CC(=O)[CH-]C(=O)c1ccccc1.CC(=O)[CH-]C(=O)c1ccccc1.CC(C)CCC[C@H](C)C1CCC2[C@@H]3CC=C4C[C@@H]([O-])CC[C@]4(C)C3CC[C@@]21C.CC(C)CCC[C@H](C)C1CCC2[C@@H]3CC=C4C[C@@H]([O-])CC[C@]4(C)C3CC[C@@]21C.Cl.[Ti+4] (stereo partly drawn) | > 25 µM |
| COc1cc2c(cc1O)CN1CCC23C=C[C@@H](O)CC13 (stereo partly drawn) | > 100 µM |
| COC1[C@H](NC(=O)OC(C)(C)C)C(=O)N1Cc1ccccc1 (stereo partly drawn) | > 100 µM |
| Nc1nnc(CCC(=O)Nc2cc(Cl)ccc2Cl)n1N | > 100 µM |
| CCN(CC)CCC1(C2CCCCC2)CCC(=O)NC1=O (stereo not drawn) | > 100 µM |
| COc1ccccc1-n1c(NN)nc2ccc(Br)cc2c1=O | > 100 µM |
| COc1cc(-c2ccc(NC(=O)SCCC(=O)O)cc2OC)ccc1NC(=O)SCCC(=O)O | > 100 µM |
| Cc1nc(-n2nc(-c3ccccc3)cc2-c2ccccc2)sc1C(=O)/C=C/c1ccc(Cl)c(Cl)c1 | > 100 µM |
| CN(NC1OC(CO)C(O)C(O)C1O)c1ccccc1 (stereo not drawn) | > 100 µM |
| Cc1cc(=O)n(-c2c(C)cccc2Cl)c(/C=C(\O)c2ccncc2)n1 | > 100 µM |
| CC(=O)OCC1OC(OCc2ccccc2)C(Br)C(OC(C)=O)C1OC(C)=O (stereo not drawn) | > 100 µM |
| CC1(C)OCN(c2ccc(S(N)(=O)=O)cc2)Cn2c1nc1ccccc12 | > 100 µM |
| COc1ccccc1-n1c(N)c2c(C)c(-c3ccccc3)[nH]c2nc1=S | > 100 µM |
| Cc1cc(C)c2c(c1)N[S@@](=O)S2 | 38.2 µM |
| COc1cc(/C=C/c2ccc(Br)cc2)cc(OC)c1OC | > 47.5 µM |
| Clc1ccc(OCc2nnc3n2N=C(c2ccc(Br)cc2)CS3)cc1 | > 100 µM |
| O=C1C2c3[nH]c4ccccc4c3C3CCCCCC3C2C(=O)N1c1ccccc1 (stereo not drawn) | > 100 µM |

---

tested on: MCF7 breast; assay: NCI tumour cell line growth inhibition, 48 h
endpoint: TGI (µM)

| compound | relation_symbol | result |
| --- | --- | --- |
| CN(C)C(=O)OC1=CC2CCC(C1)N2C (stereo not given) | > | 100 |
| Cc1oc(N)c(S(=O)(=O)c2cc3ccccc3n(O)c2=N)c1C | > | 100 |
| O=c1ccc(=O)n(-c2ccccc2)[nH]1 | > | 100 |
| CN(C)C=NC1CCC(C(C)(C)C)CC1 (stereo not given) | > | 100 |
| O=C(CCl)Nc1cc(Cl)c(Cl)cc1Cl | = | 3.6 |
| O=C(Nc1ccc(-n2ccc3c(NC(=O)c4ccccc4)nccc32)cc1)Nc1cccc(C(F)(F)F)c1 | = | 24.8 |
| CCCC(C)NC(=O)c1ccc(N(C)Cc2cnc3nc(N)nc(N)c3n2)cc1 (stereo not given) | = | 78 |
| CCCCCCCCCCCCCCCCCCOc1ccccc1CC(=O)OCC[N+](CC)(CC)CC | = | 5.25 |
| Nc1ncnc2c1ncn2-c1ccc([N+](=O)[O-])cn1 | > | 100 |
| CCCCCCCCCC(CCCC(O)CC(=O)O)OC1OC(COC2OC(C)C(OC(C)=O)C(O)C2O)C(O)C(O)C1OC1OC(CO)C(O)C(O)C1OC1OC(C)C(OC(=O)CC(C)C)C(O)C1O (stereo not given) | > | 35 |

---

system: BT-549 breast; test: NCI tumour cell line growth inhibition, 48 h; in the data active = GI50 below about 0.43 µM; inactive = the rest
Classes used: TRUE (active), FALSE (inactive)

| compound | measurement_target | qualitative_label |
| --- | --- | --- |
| O=C(Nc1ccccc1C(F)(F)F)c1ccc(NC2=C(Cl)C(=O)N(Cc3ccccc3)C2=O)cc1 | BT-549 breast | FALSE |
| Cc1ccc(Cl)cc1NC(=O)c1cc2ccccc2cc1O | BT-549 breast | TRUE |
| Cc1ccc(NC(=O)Nc2c(Cl)cccc2Cl)cn1 | BT-549 breast | FALSE |
| CCCCCC[C@@H](C)Nc1nc2ccccc2c2occc12 | BT-549 breast | FALSE |
| CCN(CC)c1ccc2nc3c4ccccc4c(=O)cc-3n(-c3ccccc3)c2c1 | BT-549 breast | FALSE |
| N#Cc1ccccc1C#C/C=C\C#CC#C/C=C\C#Cc1ccccc1C#N | BT-549 breast | FALSE |
| ClCc1ccc(Cn2cnc3c(Cl)ncnc32)cc1 | BT-549 breast | FALSE |
| COc1ccc(C(=O)O[C@H]2[C@H](O[C@H]3[C@@H](O)COC(O[C@H]4C[C@H]5[C@@H]6CC=C7C[C@@H](O)CC[C@]7(C)[C@H]6CC[C@]5(C)[C@H]4[C@H](C)C(=O)CCC(C)C)[C@@H]3OC(C)=O)OC[C@@H](O)[C@@H]2O)c(C)c1 (stereo partly specified) | BT-549 breast | TRUE |
| COc1cc(/C=C/C(=O)N2CCC=CC2=O)cc(OC)c1OC | BT-549 breast | FALSE |
| CCN(CC)CCC(CNc1ccnc2cc(Cl)ccc12)c1ccccc1 (stereo unspecified) | BT-549 breast | FALSE |
| CC1C(=O)c2cc3c(cc2CCN(C)Cc2c1ccc1c2OCO1)OCO3 (stereo unspecified) | BT-549 breast | FALSE |

Measured values drawn from PubChem BioAssay (NCI) for this set.
